Known TGI of a selection of compounds
Test system: U251 CNS
Assay: NCI tumour cell line growth inhibition, 48 h
reported metric: TGI

| compound | tested system | value observed |
| --- | --- | --- |
| CCP(C)(C)=O | U251 CNS | > 100 µM |
| CCOc1ccc(NC(=O)c2cc3ccccc3cc2O)cc1 | U251 CNS | > 100 µM |
| COc1ccc(/C(=C\c2cc(OC)c(OC)c(OC)c2)C(=O)O)cc1 | U251 CNS | > 100 µM |
| O=c1[nH]c2cc3[nH]c(=O)c(=O)[nH]c3cc2[nH]c1=O | U251 CNS | > 100 µM |
| Cc1ccc(S(=O)(=O)OI(O)CC(F)(F)F)cc1 | U251 CNS | > 100 µM |
| CC(C)(C)Cc1cc(O)ccc1O | U251 CNS | > 100 µM |
| O=c1[nH]cc(COCC(O)CO)c(=O)[nH]1 (configuration not stated) | U251 CNS | > 100 µM |
| CNC12C3C4C1C1C2C3C41C(=O)N[C@H](C(=O)N(C)[C@H](C[C@@H](OC(C)=O)c1nc(C(=O)N[C@@H](Cc2ccccc2)C[C@H](C)C(=O)OC)cs1)C(C)C)C1CC1 (some centres not stated) | U251 CNS | > 15 µM |
| Nc1ncc(N)c(NCC2(CO)CC(CCc3ccccc3)C2)n1 (configuration not stated) | U251 CNS | 19.6 µM |
| Oc1ccc2ccccc2c1NCn1nc(CCCCCCCCc2nn(CNc3c(O)ccc4ccccc34)c(=S)o2)oc1=S | U251 CNS | > 100 µM |
| CCCCCCCCc1ccc(CCC(N)(CO)CO)cc1 | U251 CNS | 3.32 µM |
| CCOC(=O)Nc1ccc(C(=O)/C=C/c2ccccc2)cc1 | U251 CNS | 30.4 µM |
| Cc1ccc(S(=O)(=O)NNC(C[N+](=O)[O-])c2ccccc2)cc1 (configuration not stated) | U251 CNS | 60.5 µM |
| CCN(CC)c1ccc2cc(-c3csc(C)n3)c(=O)oc2c1 | U251 CNS | > 100 µM |
| CN(C)CCN=C1Nc2ccccc2C(=O)N2CSCC12 (configuration not stated) | U251 CNS | > 100 µM |
| COC1=CC(=O)c2c(n[nH]c2CCNC(=O)OCc2ccccc2)C1=O | U251 CNS | 26 µM |
| Cn1c(-c2cccs2)cc(-c2ccsc2)c1-c1cccs1 | U251 CNS | > 100 µM |
| O=C1OC(C2Cc3ccc4c(c3C2=O)CCCC4)c2ccccc21 (configuration not stated) | U251 CNS | > 100 µM |
| Cc1ccc(S(=O)(=O)NC(=O)NCC(N)=O)cc1 | U251 CNS | > 100 µM |
| Cn1ccc2c3c(=O)cc[nH]c3ccc21 | U251 CNS | > 100 µM |
| CC[C@H]1C=CCC[C@@]2(C[C@@H]3CC[C@H]4[C@@H](C(=O)OCCCCCCCCCCCCCCCC(=O)N(CCCNC(C)=O)C[C@H](CCNC(C)=O)OC(C)=O)[C@@]5(CCC[C@@H](C)O5)NC(=[N+]34)N2)O1 | U251 CNS | 2.11 µM |
| Cc1cccc(Cl)c1NC(=O)c1cccc([N+](=O)[O-])c1O | U251 CNS | > 100 µM |
